- Tested on: NCI-H1944
- experimentalDetails: relative viability (nuclei count vs DMSO), 5 days (fraction); higher = more cells survive
- cond: first compound 8 µM
assayEndpoint: relative viability
Number only, please.

Below, 3 molecules whose answers are already recorded.
CCCCCCCCCCCC1=C(O)C(=O)C=C(O)C1=O [Embelin] + Cc1cc(Nc2cc(N3CCN(C)CC3)nc(Sc3ccc(NC(=O)C4CC4)cc3)n2)n[nH]1 [Tozasertib] (partner 0.1 µM); 0.276
CCCCCCCCCCCC1=C(O)C(=O)C=C(O)C1=O [Embelin] + COc1cccc2cc(-c3nc([C@H]4CC[C@H](C(=O)O)CC4)n4ncnc(N)c34)[nH]c12 [OSI-027] (partner 0.5 µM); 0.425
CCCCCCCCCCCC1=C(O)C(=O)C=C(O)C1=O [Embelin] + O=C(CCCCCCC(=O)Nc1ccccc1)NO [Vorinostat] (partner 1 µM); 0.589

Query :: GET /values?readout=relative viability&item= CCCCCCCCCCCC1=C(O)C(=O)C=C(O)C1=O [Embelin] + O=C(c1cc(Cc2n[nH]c(=O)c3ccccc23)ccc1F)N1CCN(C(=O)C2CC2)CC1 [Olaparib] (partner 8 µM)
Result :: 0.425

====

- System: EKVX
- experimentalDetails: relative viability (nuclei count vs DMSO), 5 days (fraction); higher = more cells survive
- cond: first compound 0.04 µM
assayEndpoint: relative viability
Could you respond with only the numeric value?

Study these solved cases before continuing.
Clc1ccc(Nc2nnc(Cc3ccncc3)c3ccccc23)cc1 [Vatalanib] + O=C(c1cc(Cc2n[nH]c(=O)c3ccccc23)ccc1F)N1CCN(C(=O)C2CC2)CC1 [Olaparib] (partner 8 µM); 0.955
Clc1ccc(Nc2nnc(Cc3ccncc3)c3ccccc23)cc1 [Vatalanib] + O=C(CCCCCCC(=O)Nc1ccccc1)NO [Vorinostat] (partner 1 µM); 0.773
C[C@@H]1CN(CC(=O)Nc2ccc3c(c2)Cc2cccc(-c4cc(=O)cc(N5CCOCC5)o4)c2S3)C[C@H](C)O1 + CS(=O)(=O)N1CCN(Cc2cc3nc(-c4cccc5[nH]ncc45)nc(N4CCOCC4)c3s2)CC1 [Pictilisib] (partner 1 µM); 0.412
COc1cc(N2CCC(C(N)=O)CC2)ccc1Nc1nc(N)c(Cl)c(Nc2ccccc2S(=O)(=O)C(C)C)n1 [HG-5-88-01] + CC(=O)c1c(C)c2cnc(Nc3ccc(N4CCNCC4)cn3)nc2n(C2CCCC2)c1=O [Palbociclib] (partner 0.5 µM); 0.507
Clc1ccc(Nc2nnc(Cc3ccncc3)c3ccccc23)cc1 [Vatalanib] + C[C@@H](Oc1cc(-c2cnn(C3CCNCC3)c2)cnc1N)c1c(Cl)ccc(F)c1Cl [Crizotinib] (partner 1 µM); 0.993

Proceed to the following item.
Query :: Need relative viability of C[C@@H]1CN(CC(=O)Nc2ccc3c(c2)Cc2cccc(-c4cc(=O)cc(N5CCOCC5)o4)c2S3)C[C@H](C)O1 + N=C(N)NC(=N)NCCc1ccccc1 [Phenformin] (partner 250 µM) , thanks.
Result :: 0.23

====

Recorded measurements of relative viability, one per entry
- Tested on: NCI-H1437
- experimentalDetails: relative viability (nuclei count vs DMSO), 5 days (fraction); higher = more cells survive
- cond: first compound 0.1265 µM
Give the value as a plain number.

In the examples that follow, each entry is paired with its recorded relative viability.
C[C@@H]1CN(CC(=O)Nc2ccc3c(c2)Cc2cccc(-c4cc(=O)cc(N5CCOCC5)o4)c2S3)C[C@H](C)O1 + NC(=O)Nc1cc(-c2cccc(F)c2)sc1C(=O)N[C@H]1CCCNC1 [AZD7762] (partner 0.2 µM); 1.09
Clc1ccc(Nc2nnc(Cc3ccncc3)c3ccccc23)cc1 [Vatalanib] + Cc1nc(Nc2ncc(C(=O)Nc3c(C)cccc3Cl)s2)cc(N2CCN(CCO)CC2)n1 [Dasatinib] (partner 0.075 µM); 0.41
COc1cc(N2CCC(C(N)=O)CC2)ccc1Nc1nc(N)c(Cl)c(Nc2ccccc2S(=O)(=O)C(C)C)n1 [HG-5-88-01] + O=C(c1cc(Cc2n[nH]c(=O)c3ccccc23)ccc1F)N1CCN(C(=O)C2CC2)CC1 [Olaparib] (partner 8 µM); 0.609

Moving on to another molecule below.
Query :: Which relative viability value is on record for C[C@@H]1CN(CC(=O)Nc2ccc3c(c2)Cc2cccc(-c4cc(=O)cc(N5CCOCC5)o4)c2S3)C[C@H](C)O1 + C[C@@H](Oc1cc(-c2cnn(C3CCNCC3)c2)cnc1N)c1c(Cl)ccc(F)c1Cl [Crizotinib] (partner 1 µM) ?
Result :: 0.899
